Please provide measured Bliss excess for the entries that follow.
Test system: PANC-08-13 (Pancreatic Carcinoma);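 also: after 72 h of two-drug dosing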
TEST_DETAILS: Bliss excess, mean over the matrix (fraction); higher = more synergy
Write no unit; give the number alone.

Readout Bliss excess for Cn1cnc2c(F)c(Nc3ccc(Br)cc3Cl)c(C(=O)NOCCO)cc21 [Selumetinib] + C[C@@H]1COCCN1C2=NC(=NC(=C2)C3(CC3)[S@](=N)(=O)C)C4=C5C=CNC5=NC=C4 [AZD6738] (first compound max 10 µM, 7x7, partner max 10 µM) , test system PANC-08-13 (Pancreatic Carcinoma), was -0.0351

Form: item C=CCn1c(=O)c2cnc(Nc3ccc(N4CCN(C)CC4)cc3)nc2n1-c1cccc(C(C)(C)O)n1 [AZD1775] + C[C@@H]1COCCN1C2=NC(=NC(=C2)C3(CC3)[S@](=N)(=O)C)C4=C5C=CNC5=NC=C4 [AZD6738] (first compound max 1 µM, partner max 10 µM) ; test system PANC-08-13 (Pancreatic Carcinoma); Bliss excess: -0.0203

Fill in: PANC-08-13 (Pancreatic Carcinoma) Bliss excess for CC1(C)CCC(CN2CCN(c3ccc(C(=O)NS(=O)(=O)c4ccc(NCC5CCOCC5)c([N+](=O)[O-])c4)c(Oc4cnc5[nH]ccc5c4)c3)CC2)=C(c2ccc(Cl)cc2)C1 [Venetoclax] + Cn1cnc2c(F)c(Nc3ccc(Br)cc3Cl)c(C(=O)NOCCO)cc21 [Selumetinib] (first compound max 1 µM, 7x7, partner max 3 µM) = -0.0627
